measured-on: TBK1 (Homo sapiens (Human), UniProt Q9UHD2)
Sequence (Q9UHD2 whole entry): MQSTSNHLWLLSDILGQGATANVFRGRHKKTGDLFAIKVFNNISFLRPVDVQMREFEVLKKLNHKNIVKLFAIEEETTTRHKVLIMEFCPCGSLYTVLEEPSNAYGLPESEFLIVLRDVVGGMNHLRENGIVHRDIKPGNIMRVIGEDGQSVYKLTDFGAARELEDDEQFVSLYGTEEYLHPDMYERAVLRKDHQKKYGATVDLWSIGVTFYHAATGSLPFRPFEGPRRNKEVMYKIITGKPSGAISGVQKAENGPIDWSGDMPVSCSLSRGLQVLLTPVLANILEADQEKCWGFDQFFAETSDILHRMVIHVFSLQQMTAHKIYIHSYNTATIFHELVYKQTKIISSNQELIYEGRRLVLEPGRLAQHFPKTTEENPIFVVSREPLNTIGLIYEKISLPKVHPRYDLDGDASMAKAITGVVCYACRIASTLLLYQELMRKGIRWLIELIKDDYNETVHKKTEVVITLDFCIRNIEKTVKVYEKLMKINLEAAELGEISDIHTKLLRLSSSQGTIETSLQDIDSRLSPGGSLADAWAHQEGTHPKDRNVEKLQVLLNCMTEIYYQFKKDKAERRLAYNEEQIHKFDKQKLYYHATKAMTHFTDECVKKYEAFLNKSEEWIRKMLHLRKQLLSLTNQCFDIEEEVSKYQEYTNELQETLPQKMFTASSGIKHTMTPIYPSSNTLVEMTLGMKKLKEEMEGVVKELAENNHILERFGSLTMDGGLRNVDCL
assay-overview: TBK1 low ATP kinase assay (in vitro assay 1)
Assay type: biochemical
reported-conditions: in vitro assay 1, read-out: TBK1 low ATP kinase assay IC50
parameter-measured: IC50 (nM)

CC(C)Oc1cc(-c2ccc3nc(Nc4cc(CN5CCN(C(=O)OC(C)(C)C)CC5)ccn4)[nH]c3c2)ncn1 : 64

A. O=C(CC(F)(F)F)N1CCN(Cc2ccnc(Nc3nc4ccc(-c5nnc(CC6CCC6)o5)cc4[nH]3)c2)CC1
B. Cc1ncc(C)c(-c2ccc3nc(Nc4cc(CN5CCN(C(=O)C6CC6)CC5)ccn4)[nH]c3c2)n1
Param pair: A , B . Output: the one whose IC50 is numerically greater. Bench note: the answer is the label of the chosen record.
B
(B: 1500 nM, A: 3.9 nM)

P. CCOc1cc(-c2ccc3nc(Nc4cc(CN5CCN(C(=O)C6CC6)CC5)ccn4)[nH]c3c2)ncn1
Q. Cc1noc(-c2ccc3nc(Nc4cc(C(C)N5CCN(C(=O)C6(C(F)(F)F)CC6)CC5)ccn4)[nH]c3c2)n1 (single isomer, unassigned)
R. Cc1cc(-c2ccc3nc(Nc4cc(CN5CCN(C(=O)CC(F)(F)F)CC5)ccn4)[nH]c3c2)c(F)cn1
Parameters: sort_field (IC50), sort_dir (desc). Order the labels as requested and give them as your answer.
R, Q, P

----------
measured-on: TBK1 (Homo sapiens (Human))
assay-overview: TBK1 low ATP kinase assay (in vitro assay 1)
Assay type: biochemical
reported-conditions: in vitro assay 1, read-out: TBK1 low ATP kinase assay IC50
parameter-measured: IC50 (nM)

1. CC(c1ccnc(Nc2nc3ccc(-c4cc(N(C)CC5CC5)ncn4)cc3[nH]2)c1)N1CCN(C(=O)C2(C(F)(F)F)CC2)CC1 (single isomer, unassigned)
2. COc1cc(-c2ccc3nc(Nc4cc(CN5CCN(C(=O)CC6CC6)CC5)ccn4)[nH]c3c2)c(F)cn1
3. CC(c1ccnc(Nc2nc3ccc(-c4cnn(CC5CC5(C)C)c4)cc3[nH]2)c1)N1CCN(C(=O)OC(C)(C)C)CC1 (single isomer, unassigned)
4. Cc1ncnc(-c2ccc3nc(Nc4cc(CN5CCN(C(=O)CC(F)(F)F)CC5)ccn4)[nH]c3c2)c1C
Which order do these fall in by IC50? Give them lowest to highest. Order the labels as requested and give them as your answer.
1, 3, 2, 4
(1: 6.46 nM, 3: 46 nM, 2: 288 nM, 4: 1170 nM)

----------
measured-on: TBK1 (Homo sapiens (Human), UniProt Q9UHD2)
assay-overview: TBK1 low ATP kinase assay (in vitro assay 1)
Assay type: biochemical
reported-conditions: in vitro assay 1, read-out: TBK1 low ATP kinase assay IC50
parameter-measured: IC50 (nM)

CC(c1ccnc(Nc2nc3ccc(-c4cnn(CC5CCCC5)c4)cc3[nH]2)c1)N1CCN(C(=O)OC(C)(C)C)CC1 (single isomer, unassigned) : 100

A. Cc1cc(-c2ccc3nc(Nc4cc(CN5CCN(C(=O)OC(C)(C)C)CC5)ccn4)[nH]c3c2)c(F)cn1
B. Cc1noc(-c2ccc3nc(Nc4cc(C(C)N5CCN(C(=O)OC(C)(C)C)CC5)ccn4)[nH]c3c2)n1 (racemic)
Param pair: A , B . Output: the one whose IC50 is numerically greater. Bench note: the answer is the label of the chosen record.
A
(A: 140 nM, B: 82.5 nM)
